Sourced from the supplement of paper PMC12667976

B1: library; numbered along this chain (parent)
chain: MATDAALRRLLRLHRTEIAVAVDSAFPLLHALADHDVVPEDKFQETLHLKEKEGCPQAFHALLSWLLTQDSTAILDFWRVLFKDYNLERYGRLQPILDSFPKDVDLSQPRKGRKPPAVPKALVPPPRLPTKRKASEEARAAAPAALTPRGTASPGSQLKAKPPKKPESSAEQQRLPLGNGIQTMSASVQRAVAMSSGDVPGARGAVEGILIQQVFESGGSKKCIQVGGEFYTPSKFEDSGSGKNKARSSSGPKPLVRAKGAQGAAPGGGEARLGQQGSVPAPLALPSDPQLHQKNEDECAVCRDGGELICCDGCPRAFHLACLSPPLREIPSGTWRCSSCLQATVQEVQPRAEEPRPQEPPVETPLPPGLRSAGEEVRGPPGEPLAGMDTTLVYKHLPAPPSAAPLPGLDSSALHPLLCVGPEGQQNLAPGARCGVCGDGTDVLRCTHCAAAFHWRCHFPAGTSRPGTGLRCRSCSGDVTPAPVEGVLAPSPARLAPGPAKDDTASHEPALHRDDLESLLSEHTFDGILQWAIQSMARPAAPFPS

Variants of: B1
Experiment: AIRE transcriptional activation functional score (insulin promoter-GFP; nonsense median 0, synonymous median 1) (normalised score); higher = higher AIRE activity (more reporter activation)
Details: with insulin promoter-GFP reporter in HEK293
readout.label: AIRE transcriptional activation functional score
Form field (numeric): enter value without unit.

- var: "A121I"
  reported.result: 0.906

Task: Any idea what AIRE transcriptional activation functional score was measured for F215L ?
Output: 0.751

Task: Then this variant: S402T
Output: 0.974

Task: Then this variant: S324L
Output: 1.11

Task: Then this variant: G150N
Output: 0.149

Task: Then this variant: S476K
Output: 0.603

Task: Then this variant: V226N
Output: -0.139

Task: Then this variant: T183M
Output: 0.663

Task: Then this variant: S411P
Output: 1.08

Task: Then this variant: L385F
Output: 0.899

Task: Then this variant: Q534C
Output: 1.08

Task: Then this variant: S64T
Output: 0.485

Task: Then this variant: G208A
Output: 0.173

Task: Then this variant: P126Y
Output: -0.0102

Task: Then this variant: F543E
Output: 0.561

Task: Then this variant: P143F
Output: 1.28

Task: Then this variant: E53D
Output: 0.593

Task: Then this variant: D288M
Output: 1.31

Task: Then this variant: C299W
Output: 0.647

Task: Then this variant: G305S
Output: 0.9

Task: Then this variant: P119T
Output: 1.59

Task: Then this variant: F77S
Output: -0.182
